The measured values listed here are drawn from paper PMC12283027.

- Target or test system: Receptor-interacting protein kinase 1 (RIPK1) (Homo sapiens)
- Construct: with VHL
- Sequence (Q13546 whole entry): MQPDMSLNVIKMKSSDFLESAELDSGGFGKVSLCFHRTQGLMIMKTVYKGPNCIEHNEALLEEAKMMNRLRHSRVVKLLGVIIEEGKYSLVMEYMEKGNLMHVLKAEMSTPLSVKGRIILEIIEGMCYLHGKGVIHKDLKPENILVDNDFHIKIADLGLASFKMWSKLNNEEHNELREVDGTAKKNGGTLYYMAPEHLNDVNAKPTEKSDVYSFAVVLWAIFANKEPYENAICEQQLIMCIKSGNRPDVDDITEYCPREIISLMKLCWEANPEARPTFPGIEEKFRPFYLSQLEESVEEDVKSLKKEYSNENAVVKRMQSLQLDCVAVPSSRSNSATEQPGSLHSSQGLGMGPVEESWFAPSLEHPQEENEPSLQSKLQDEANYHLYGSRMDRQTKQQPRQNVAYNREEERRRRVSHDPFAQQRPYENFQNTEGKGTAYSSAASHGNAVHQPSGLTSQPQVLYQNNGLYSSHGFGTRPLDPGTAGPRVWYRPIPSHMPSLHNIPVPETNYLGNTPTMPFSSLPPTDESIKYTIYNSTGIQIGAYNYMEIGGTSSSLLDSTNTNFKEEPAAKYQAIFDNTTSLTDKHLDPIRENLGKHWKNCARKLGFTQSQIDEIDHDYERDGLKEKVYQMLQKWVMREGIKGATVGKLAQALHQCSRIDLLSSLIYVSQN
- Sequence (P40337 whole entry partner): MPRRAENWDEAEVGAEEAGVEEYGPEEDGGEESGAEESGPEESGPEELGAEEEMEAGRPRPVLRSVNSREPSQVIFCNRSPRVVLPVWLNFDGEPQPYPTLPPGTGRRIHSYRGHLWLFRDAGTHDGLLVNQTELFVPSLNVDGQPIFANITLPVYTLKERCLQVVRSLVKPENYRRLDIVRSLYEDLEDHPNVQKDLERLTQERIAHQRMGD
- Assay comment: cell-based
- Parameters: HiBiT luminescence of CRISPR-tagged endogenous RIPK1 (C-terminal HiBiT) after PROTAC treatment; degradation DC50 and Dmax
- Condition context: HEK293T-RIPK1-HiBiT cells; read-out: Dmax (HEK293T-RIPK1-HiBiT cell line)
Recorded metric: Dmax (%)
Please state the figure in %; there is no need to write the unit.

The following molecules have reported results that may help.
Compound structure	Units of measure	Number
Cc1ncsc1-c1ccc([C@H](C)NC(=O)[C@@H]2C[C@@H](O)CN2C(=O)[C@@H](NC(=O)CCNC(=O)Cn2cc(-c3cnc(N)c4c(-c5ccc6c(c5)CCN6C(=O)Cc5ccccc5)csc34)cn2)C(C)(C)C)cc1	%	25
Cc1ncsc1-c1ccc([C@H](C)NC(=O)[C@@H]2C[C@@H](O)CN2C(=O)[C@@H](NC(=O)CCCNC(=O)Cn2cc(-c3cnc(N)c4c(-c5ccc6c(c5)CCN6C(=O)Cc5ccccc5)csc34)cn2)C(C)(C)C)cc1	%	62
Cc1ncsc1-c1ccc([C@H](C)NC(=O)[C@@H]2C[C@@H](O)CN2C(=O)[C@@H](NC(=O)CCCCCCCNC(=O)Cn2cc(-c3cnc(N)c4c(-c5ccc6c(c5)CCN6C(=O)Cc5ccccc5)csc34)cn2)C(C)(C)C)cc1	%	94
Cc1ncsc1-c1ccc([C@H](C)NC(=O)[C@@H]2C[C@@H](O)CN2C(=O)[C@@H](NC(=O)COCCOCCOc2ccc(CCNC(=O)Cn3cc(-c4cnc(N)c5c(-c6ccc7c(c6)CCN7C(=O)Cc6ccccc6)csc45)cn3)cc2)C(C)(C)C)cc1	%	92

Input: Return reported Dmax; argument: Cc1ncsc1-c1ccc([C@H](C)NC(=O)[C@@H]2C[C@@H](O)CN2C(=O)[C@@H](NC(=O)C2CCN(CCNC(=O)Cn3cc(-c4cnc(N)c5c(-c6ccc7c(c6)CCN7C(=O)Cc6ccccc6)csc45)cn3)CC2)C(C)(C)C)cc1
Output: 34

Input: Thanks! And Cc1ncsc1-c1ccc([C@H](C)NC(=O)[C@@H]2C[C@@H](O)CN2C(=O)[C@@H](NC(=O)CCCCCCCCNC(=O)Cn2cc(-c3cnc(N)c4c(-c5ccc6c(c5)CCN6C(=O)Cc5ccccc5)csc34)cn2)C(C)(C)C)cc1 ?
Output: 93

Input: Ok, now Cc1ncsc1-c1ccc([C@H](C)NC(=O)[C@@H]2C[C@@H](O)CN2C(=O)[C@@H](NC(=O)CCCCNC(=O)Cn2cc(-c3cnc(N)c4c(-c5ccc6c(c5)CCN6C(=O)Cc5ccccc5)csc34)cn2)C(C)(C)C)cc1
Output: 51

Input: Now the same for Cc1ncsc1-c1ccc([C@H](C)NC(=O)[C@@H]2C[C@@H](O)CN2C(=O)[C@@H](NC(=O)COCCOc2ccc(CCNC(=O)Cn3cc(-c4cnc(N)c5c(-c6ccc7c(c6)CCN7C(=O)Cc6ccccc6)csc45)cn3)cc2)C(C)(C)C)cc1
Output: 93
